Biological target: Integrin alpha-IIb/beta-3 (Homo sapiens, UniProt P05106+P08514)
Sequence (P05106 27-788 limits assumed): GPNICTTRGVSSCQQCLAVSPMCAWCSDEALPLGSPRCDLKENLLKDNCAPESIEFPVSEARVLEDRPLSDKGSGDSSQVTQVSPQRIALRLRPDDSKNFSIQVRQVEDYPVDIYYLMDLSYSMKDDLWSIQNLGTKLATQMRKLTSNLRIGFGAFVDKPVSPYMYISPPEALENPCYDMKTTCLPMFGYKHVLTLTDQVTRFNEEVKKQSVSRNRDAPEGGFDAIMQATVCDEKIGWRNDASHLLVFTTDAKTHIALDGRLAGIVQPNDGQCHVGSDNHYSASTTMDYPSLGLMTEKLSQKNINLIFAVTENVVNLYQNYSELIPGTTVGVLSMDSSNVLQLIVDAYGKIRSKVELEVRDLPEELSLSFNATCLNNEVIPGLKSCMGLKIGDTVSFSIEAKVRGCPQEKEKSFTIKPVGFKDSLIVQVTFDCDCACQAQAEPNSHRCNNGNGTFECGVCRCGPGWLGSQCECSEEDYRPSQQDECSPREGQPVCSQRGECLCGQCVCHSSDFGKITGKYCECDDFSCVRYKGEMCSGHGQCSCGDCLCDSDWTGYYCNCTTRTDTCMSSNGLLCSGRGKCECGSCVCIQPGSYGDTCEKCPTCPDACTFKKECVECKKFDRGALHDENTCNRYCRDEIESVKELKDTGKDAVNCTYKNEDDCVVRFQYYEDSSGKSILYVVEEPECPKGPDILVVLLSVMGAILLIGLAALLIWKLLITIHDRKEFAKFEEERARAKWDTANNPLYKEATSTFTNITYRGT
Sequence (P08514 32-887 limits assumed): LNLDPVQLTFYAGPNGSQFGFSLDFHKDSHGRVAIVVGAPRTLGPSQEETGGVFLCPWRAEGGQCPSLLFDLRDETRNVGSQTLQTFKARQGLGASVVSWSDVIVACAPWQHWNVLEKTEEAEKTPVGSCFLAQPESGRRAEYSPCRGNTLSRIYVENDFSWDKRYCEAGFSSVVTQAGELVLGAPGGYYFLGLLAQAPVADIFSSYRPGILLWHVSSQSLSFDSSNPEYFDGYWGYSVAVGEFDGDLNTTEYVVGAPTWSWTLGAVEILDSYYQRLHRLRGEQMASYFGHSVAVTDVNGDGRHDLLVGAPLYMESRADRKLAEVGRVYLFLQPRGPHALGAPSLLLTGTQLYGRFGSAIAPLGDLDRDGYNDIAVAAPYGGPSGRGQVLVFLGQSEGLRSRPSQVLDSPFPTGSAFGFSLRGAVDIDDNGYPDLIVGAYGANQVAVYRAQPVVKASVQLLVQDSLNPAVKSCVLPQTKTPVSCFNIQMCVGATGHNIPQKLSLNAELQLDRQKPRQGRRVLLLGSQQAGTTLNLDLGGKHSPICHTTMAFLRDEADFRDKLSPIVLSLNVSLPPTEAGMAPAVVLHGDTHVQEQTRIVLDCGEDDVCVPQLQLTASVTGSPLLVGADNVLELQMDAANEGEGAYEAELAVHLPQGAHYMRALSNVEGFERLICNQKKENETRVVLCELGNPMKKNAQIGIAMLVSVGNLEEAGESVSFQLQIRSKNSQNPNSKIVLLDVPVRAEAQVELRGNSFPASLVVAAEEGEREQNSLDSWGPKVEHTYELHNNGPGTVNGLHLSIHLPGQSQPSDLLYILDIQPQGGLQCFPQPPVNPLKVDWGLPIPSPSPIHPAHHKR
Sequence (P08514 891-1039 limits assumed): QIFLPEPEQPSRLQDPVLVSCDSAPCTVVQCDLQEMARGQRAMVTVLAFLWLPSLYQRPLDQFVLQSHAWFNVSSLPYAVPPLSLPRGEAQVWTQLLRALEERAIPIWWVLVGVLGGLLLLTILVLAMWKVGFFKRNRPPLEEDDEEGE
Experiment: Inhibition of Fibrinogen receptor
Type: protein-complex assay
Where a SMILES comes first, the peptide text is derived from it.
Measurement label: pIC50
Numbers only, as −log10 of the molar value.

The recorded pIC50 for entry N=C(N)NCCC[C@H](N)C(=O)NCC(=O)N[C@@H](CC(=O)O)C(=O)N[C@@H](Cc1ccccc1)C(=O)O (H-RGDF-OH) equals 7.51

----------
Answer each item with its documented pIC50.
Molecular target: Integrin alpha-IIb/beta-3 (Homo sapiens, UniProt P05106+P08514)
Assay: The compound was tested for the inhibition of fibrinogen receptor
Format: protein-complex assay
*1 amine or outer side, *2 acyl side, *3 side chain or, on linkers, in order; H or OH if unused. Where a SMILES comes first, the peptide text is derived from it. Bridges are numbered along the chain shown (N, C = ends). [ ]: non-standard residue; d: D form. Cys(O)(CH2CO) = O=C([C@H](C[S+]([O-])CC(=O)[*:3])N[*:1])[*:2]
Give bare numbers, as −log10 of the molar value.

The recorded pIC50 for entry N=C(N)NCCC[C@@H]1NC(=O)[C@H](CCCCN)NC(=O)C[S+]([O-])C[C@@H](C(=O)O)NC(=O)[C@H](CC(=O)O)NC(=O)CNC1=O (stereo partly drawn) (KRGD[Cys(O)(CH2CO)]-OH; lactam N-5) equals 8.59

The recorded pIC50 for entry CC(C)(C)C[C@@H]1NC(=O)CSC[C@@H](C(=O)O)NC(=O)[C@H](CC(=O)O)NC(=O)CNC(=O)[C@H](CCCNC(=N)N)NC1=O equals 8.44

// switching to the query compound
The recorded pIC50 for entry NC(=O)CC[C@H]1NC(=O)CSC[C@@H](C(=O)O)NC(=O)[C@H](CC(=O)O)NC(=O)CNC(=O)[C@H](CCCN=C(N)N)NC1=O equals 6.96

----------
Molecular target: Integrin alpha-IIb/beta-3 (Homo sapiens, UniProt P05106+P08514)
Test: The compound was tested for the inhibition of fibrinogen receptor
Format: protein-complex assay
Measurement label: pIC50
Give bare numbers, as −log10 of the molar value.

For each entry beneath this line, provide reported pIC50.
1. N=C(N)NCCC[C@@H]1NC(=O)CNC(=O)[C@H](Cc2ccccc2)SC[C@@H](C(=O)O)NC(=O)[C@H](CC(=O)O)NC(=O)CNC1=O
2. N=C(N)NCCC[C@@H]1NC(=O)[C@H](Cc2ccccc2)NC(=O)CSC[C@@H](C(=O)O)NC(=O)[C@H](CC(=O)O)NC(=O)CNC1=O
3. N=C(N)NCCC[C@@H]1NC(=O)[C@@H](CCCN)NC(=O)CSC[C@@H](C(=O)O)NC(=O)[C@H](CC(=O)O)NC(=O)CNC1=O

Result:
1: 7.85; 2: 8.15; 3: 7.51

----------
Target: Integrin alpha-IIb/beta-3 (Homo sapiens, UniProt P05106+P08514)
Experiment: The compound was tested for the inhibition of fibrinogen receptor
Type: protein-complex assay
Where a SMILES comes first, the peptide text is derived from it. Bridges are numbered along the chain shown (N, C = ends). [ ]: non-standard residue; d: D form.
Measurement label: IC50 (nM)
One number for each entry, in nM.

These solved cases illustrate the format of a correct answer.
The recorded IC50 for entry N=C(N)NCCC[C@@H]1NC(=O)[C@@H](CC(=O)O)NC(=O)CSC[C@@H](C(=O)O)NC(=O)[C@H](CC(=O)O)NC(=O)CNC1=O equals 500

The recorded IC50 for entry N=C(N)NCCC[C@@H]1NC(=O)[C@@H](Cc2ccccc2)NC(=O)CSC[C@@H](C(=O)O)NC(=O)[C@H](CC(=O)O)NC(=O)CNC1=O equals 35

The recorded IC50 for entry N=C(N)NCCC[C@@H]1NC(=O)CNC(=O)CSC[C@@H](C(N)=O)NC(=O)[C@H](CC(=O)O)NC(=O)CNC1=O ({CH2CO}-GRGDC-NH2; thioether N-5) equals 12

The recorded IC50 for entry N=C(N)NCCC[C@@H]1NC(=O)[C@H]2CCCN2C(=O)CSC[C@@H](C(=O)O)NC(=O)[C@H](CC(=O)O)NC(=O)CNC1=O ({CH2CO}-[dP]RGDC-OH; thioether N-5) equals 11.4

The recorded IC50 for entry NCC(=O)N[C@@H](CCCN=C(N)N)C(=O)NCC(=O)N[C@@H](CC(=O)O)C(=O)N[C@@H](Cc1ccc(O)cc1)C(=O)O (H-GRGDY-OH) equals 240

For each entry beneath this line, provide reported IC50.
1. N=C(N)NCCC[C@@H]1NC(=O)[C@H](Cc2cnc[nH]2)NC(=O)CSC[C@@H](C(=O)O)NC(=O)[C@H](CC(=O)O)NC(=O)CNC1=O
2. NC(N)=NCCC[C@H](N)C(=O)NCC(=O)N[C@@H](CC(=O)O)C(=O)N[C@@H](Cc1ccc(O)cc1)C(=O)O (H-RGDY-OH)
3. N=C(N)NCCC[C@@H]1NC(=O)CNC(=O)C(c2cccc3ccccc23)SC[C@@H](C(=O)O)NC(=O)[C@H](CC(=O)O)NC(=O)CNC1=O (stereo in doubt; 17B)
4. CCC1SC[C@@H](C(=O)O)NC(=O)[C@H](CC(=O)O)NC(=O)CNC(=O)[C@H](CCCN=C(N)N)NC(=O)CNC1=O (stereo in doubt; 25B)
5. N=C(N)NCCC[C@@H]1NC(=O)[C@H](CCC(=O)O)NC(=O)C[S+]([O-])C[C@@H](C(=O)O)NC(=O)[C@H](CC(=O)O)NC(=O)CNC1=O (stereo in doubt; 73A)
6. C[C@@H]1NC(=O)C[S+]([O-])C[C@@H](C(=O)O)NC(=O)[C@H](CC(=O)O)NC(=O)CNC(=O)[C@H](CCCN=C(N)N)NC1=O (stereo in doubt; 68A)

Result:
3
70
1.4
6
4.7
1.6

The recorded IC50 for entry N=C(N)NCCC[C@@H]1NC(=O)CNC(=O)C(c2ccccc2C(F)(F)F)SC[C@@H](C(=O)O)NC(=O)[C@H](CC(=O)O)NC(=O)CNC1=O (stereo in doubt; 20B) equals 2.7

----------
Target: Integrin alpha-IIb/beta-3 (Homo sapiens, UniProt P05106+P08514)
Experiment: The compound was tested for the inhibition of fibrinogen receptor
Type: protein-complex assay
Where a SMILES comes first, the peptide text is derived from it. Bridges are numbered along the chain shown (N, C = ends).
Measurement label: pIC50
One number for each entry, as −log10 of the molar value.

These solved cases illustrate the format of a correct answer.
The recorded pIC50 for entry NCCC[C@@H]1NC(=O)CSC[C@@H](C(=O)O)NC(=O)[C@H](CC(=O)O)NC(=O)CNC(=O)[C@H](CCCN=C(N)N)NC1=O equals 8.25

The recorded pIC50 for entry N=C(N)NCCC[C@@H]1NC(=O)[C@H](Cc2ccc(O)cc2)NC(=O)CSC[C@@H](C(=O)O)NC(=O)[C@H](CC(=O)O)NC(=O)CNC1=O ({CH2CO}-YRGDC-OH; thioether N-5) equals 8.82

The recorded pIC50 for entry CCCC1SC[C@@H](C(=O)O)NC(=O)[C@H](CC(=O)O)NC(=O)CNC(=O)[C@H](CCCNC(=N)N)NC(=O)CNC1=O (stereo in doubt; 23A) equals 7.68

The recorded pIC50 for entry C[C@@H](O)[C@@H]1NC(=O)C[S+]([O-])C[C@@H](C(=O)O)NC(=O)[C@H](CC(=O)O)NC(=O)CNC(=O)[C@H](CCCN=C(N)N)NC1=O (stereo in doubt; 71B) equals 8.00

The recorded pIC50 for entry CSCC[C@H]1NC(=O)CSC[C@@H](C(=O)O)NC(=O)[C@H](CC(=O)O)NC(=O)CNC(=O)[C@H](CCCNC(=N)N)NC1=O equals 7.55

// switching to the query molecule
The recorded pIC50 for entry N=C(N)NCCC[C@@H]1NC(=O)CNC(=O)C(c2ccc(-c3ccccc3)cc2)SC[C@@H](C(=O)O)NC(=O)[C@H](CC(=O)O)NC(=O)CNC1=O (stereo in doubt; 19B) equals 8.46

----------
Answer each item with its documented pIC50.
Target: Integrin alpha-IIb/beta-3 (Homo sapiens, UniProt P05106+P08514)
Assay: The compound was tested for the inhibition of fibrinogen receptor
Assay type: protein-complex assay
*1 amine or outer side, *2 acyl side, *3 side chain or, on linkers, in order; H or OH if unused. Where a SMILES comes first, the peptide text is derived from it. Bridges are numbered along the chain shown (N, C = ends). [ ]: non-standard residue; d: D form. X1 = C[C@@H](O)[C@@H](C(=O)[*:2])N(c1cccc(CC[*:3])c1)[*:1]
Give bare numbers, as −log10 of the molar value.

For each entry beneath this line, provide reported pIC50.
1. N=C(N)NCCC[C@@H]1NC(=O)CNC(=O)C(c2ccc(C(F)(F)F)cc2)SC[C@@H](C(=O)O)NC(=O)[C@H](CC(=O)O)NC(=O)CNC1=O (stereo in doubt; 22A)
2. N=C(N)NCCC[C@@H]1NC(=O)CNC(=O)CS(=O)(=O)C[C@@H](C(=O)O)NC(=O)[C@H](CC(=O)O)NC(=O)CNC1=O
3. C[C@@H](O)[C@@H]1Nc2cccc(c2)CCSC[C@@H](C(=O)O)NC(=O)[C@H](CC(=O)O)NC(=O)CNC(=O)[C@H](CCCN=C(N)N)NC1=O (H-[X1]RGDC-OH; thioether 1-5)
4. N=C(N)NCCC[C@@H]1NC(=O)[C@@H](CCC(=O)O)NC(=O)CSC[C@@H](C(=O)O)NC(=O)[C@H](CC(=O)O)NC(=O)CNC1=O
5. CC(=O)NCC(=O)N[C@@H](CCCNC(=N)N)C(=O)NCC(=O)N[C@@H](CC(=O)O)C(=O)N[C@H](C(=O)O)C(C)C (Ac-GRGDV-OH)

Result:
1. 6.74
2. 7.74
3. 8.77
4. 6.59
5. 7.92
